Tested on: Toxoplasma gondii RH (in HFF)
TEST_METHOD_NOTES: parasite growth relative to the screen mean (all compounds = 100%); higher = less inhibition of parasite growth
STATED_CONDITIONS: 5 µM; 72 h; oxygen 21 %
Structures can show the parent of a compound that is named as a salt.
Listed here: items and their measured parasite growth.
# value in %; strip the unit string

• Cc1nc(N)sc1CCN [Amthamine dihydrobromide] = 94
• C1CCc2nnnn2CC1 [Pentylenetetrazole] = 110
• CCCOc1ccc2[nH]cc(C3=CCNCC3)c2n1 = 140
• CC12NC(Cc3ccccc31)c1ccccc12 (single isomer, unassigned; (+)) [(+)-MK 801 maleate] = 123
• NCCc1c[nH]c2ccc(O)cc12 [Serotonin] = 106
• N[C@H](C(=O)O)c1cc(O)no1 [Ibotenic acid] = 136

In one line, give reported parasite growth of the entry CN1[C@@H]2C[C@@H](OC(=O)[C@H](CO)c3ccccc3)C[C@H]1[C@@H]1O[C@@H]12 [Scopolamine hydrobromide] .
83.5

In one line, give reported parasite growth of the entry O=C1CCCN1CC#CCN1CCCC1 [Oxotremorine sesquifumarate] .
92

In one line, give reported parasite growth of the entry CC(C)NCC(O)c1ccc(N)c(C#N)c1 (stereo not given) [Cimaterol] .
130
